pIC50 for assorted molecules
- measured.on: Vitamin D3 receptor (Homo sapiens, UniProt P11473)
- Sequence (P11473 whole entry): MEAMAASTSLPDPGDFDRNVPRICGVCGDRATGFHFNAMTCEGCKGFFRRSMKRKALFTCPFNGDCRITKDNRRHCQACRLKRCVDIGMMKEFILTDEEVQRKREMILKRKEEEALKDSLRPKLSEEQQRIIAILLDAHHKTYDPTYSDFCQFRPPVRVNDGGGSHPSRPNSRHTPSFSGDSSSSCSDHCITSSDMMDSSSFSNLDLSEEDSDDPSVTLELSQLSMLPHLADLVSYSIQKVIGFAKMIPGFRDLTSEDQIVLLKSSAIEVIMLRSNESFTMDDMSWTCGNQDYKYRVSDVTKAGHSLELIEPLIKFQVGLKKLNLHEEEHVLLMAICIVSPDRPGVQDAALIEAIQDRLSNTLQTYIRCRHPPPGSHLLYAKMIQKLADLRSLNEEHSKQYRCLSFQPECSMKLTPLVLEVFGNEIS
Please keep in mind that pIC50 is minus log10 of the molar concentration; only the number is needed.

[[record]]
item_smiles = "CCN(CC)CCNC(=O)c1ccc(C(CC)(CC)c2ccc(C#CC(O)(CC)CC)c(C)c2)n1CC"
recorded_measurement = 7.14


Now, please, on to the next molecule.
Exercise: Requested read-out: pIC50. Entry: CCn1c(C(=O)NCC(=O)O)ccc1C(CC)(CC)c1ccc(C#CC(O)(CC)CC)c(C)c1
Key: 7.07
